# target.entity: ~100 representative kinases (Homo sapiens, UniProt Q15418)
# Construct: Recombinant protein kinase domains with a concentration of 2 μM
# Sequence (Q15418 whole entry, the tested form may be a part): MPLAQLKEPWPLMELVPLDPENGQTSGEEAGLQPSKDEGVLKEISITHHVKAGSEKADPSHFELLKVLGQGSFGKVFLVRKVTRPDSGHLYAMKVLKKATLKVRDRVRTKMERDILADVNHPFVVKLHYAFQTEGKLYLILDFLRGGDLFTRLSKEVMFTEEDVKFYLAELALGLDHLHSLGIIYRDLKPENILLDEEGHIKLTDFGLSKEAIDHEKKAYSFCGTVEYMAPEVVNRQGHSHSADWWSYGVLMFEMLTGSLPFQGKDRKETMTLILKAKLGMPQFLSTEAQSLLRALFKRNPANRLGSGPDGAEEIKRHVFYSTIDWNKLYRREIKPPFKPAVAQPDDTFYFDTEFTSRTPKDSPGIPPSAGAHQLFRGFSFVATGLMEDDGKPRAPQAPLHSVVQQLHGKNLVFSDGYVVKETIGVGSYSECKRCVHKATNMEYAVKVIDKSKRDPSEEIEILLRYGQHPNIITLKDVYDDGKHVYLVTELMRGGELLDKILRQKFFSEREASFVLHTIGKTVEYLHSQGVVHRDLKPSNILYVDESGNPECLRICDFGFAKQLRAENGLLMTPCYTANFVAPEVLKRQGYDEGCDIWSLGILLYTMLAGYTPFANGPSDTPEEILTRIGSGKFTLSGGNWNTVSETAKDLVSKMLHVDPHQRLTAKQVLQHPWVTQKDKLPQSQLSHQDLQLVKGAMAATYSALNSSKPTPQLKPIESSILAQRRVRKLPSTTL
# procedure.text: DSF 100 kinase selectivity screen;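 note: compound tested at 20 µM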
# Format: binding
# condition: Protein RPS6KA1; DSF; average of three replicates
# Procedure: Recombinant protein kinase domains with a concentration of 2 μM were mixed with a 20 μM compound solution in dimethyl sulfoxide (DMSO), 20 mM Hepes (pH 7.5), and 500 mM NaCl. SYPRO Orange (5000×, Invitrogen) was added as a fluorescence probe (1μl/ml). Subsequently, temperature-dependent protein unfolding profiles were measured using the QuantStudio 5 realtime PCR machine (Thermo Fisher Scientific, Waltham, MA, USA). […] The temperature was raised with a step rate of 3°C/min. […]
Note to self: values exactly at 0.4 K are criterion met. So dTm at or above 0.4 K is criterion met, below is criterion not met.

Completed entries (count: 3):
O=C(Nc1cccc(-c2c[nH]c3ncnc(N4CCOCC4)c23)c1)c1cccn(-c2ccc(F)cc2)c1=O | criterion not met
Cc1ccc(-n2nc(C(C)(C)C)cc2NC(=O)Nc2cccc(-c3c[nH]c4ncnc(N5CCOCC5)c34)c2)cc1 | criterion not met
O=C(Nc1cccc(-c2c[nH]c3ncnc(N4CCOCC4)c23)c1)C1(C(=O)Nc2ccc(F)c(Br)c2F)CC1 | criterion met

# check: dTm of O=C(Nc1ccccc1)C1(C(=O)Nc2cccc(-c3c[nH]c4ncnc(N5CCOCC5)c34)c2)CC1 is greater than or equal to 0.4 K
criterion met

Quick check, dTm >= 0.4 K? Cc1ccc(C(=O)Nc2ccc(CN3CCN(C)CC3)c(C(F)(F)F)c2)cc1C#Cc1c[nH]c2ncnc(N3CCOCC3)c12
criterion met

###

# target.entity: ~100 representative kinases (Homo sapiens, UniProt O15264)
# Construct: Recombinant protein kinase domains with a concentration of 2 μM
# Sequence (O15264 1-365): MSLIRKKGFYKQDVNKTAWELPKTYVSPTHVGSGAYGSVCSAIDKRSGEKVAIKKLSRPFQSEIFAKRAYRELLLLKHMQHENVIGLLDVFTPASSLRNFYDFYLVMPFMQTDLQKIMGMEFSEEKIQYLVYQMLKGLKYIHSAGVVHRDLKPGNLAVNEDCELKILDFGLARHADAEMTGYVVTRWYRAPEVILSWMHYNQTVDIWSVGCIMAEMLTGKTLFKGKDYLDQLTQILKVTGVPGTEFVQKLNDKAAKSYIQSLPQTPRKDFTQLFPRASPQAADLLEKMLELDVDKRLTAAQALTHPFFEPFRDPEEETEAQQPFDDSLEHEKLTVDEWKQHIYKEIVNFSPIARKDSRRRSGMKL
# procedure.text: DSF 100 kinase selectivity screen;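 note: compound tested at 20 µM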
# Format: binding
# condition: protein MAPK13; average of three replicates
property: dTm (K)
Give the quantity in K, number only.

O=C(Nc1cccc(-c2c[nH]c3ncnc(N4CCOCC4)c23)c1)C1(C(=O)Nc2ccc(F)cc2F)CC1 | 7.48
Cc1ccc(-n2nc(C(C)(C)C)cc2NC(=O)Nc2cccc(-c3c[nH]c4ncnc(N5CCOCC5)c34)c2)cc1 | 18.71
CC(C)(C)c1cccc(NC(=O)C2(C(=O)Nc3cccc(-c4c[nH]c5ncnc(N6CCOCC6)c45)c3)CC2)c1 | 6.63
O=C(Nc1cccc(-c2c[nH]c3ncnc(N4CCOCC4)c23)c1)C1(C(=O)Nc2ccc(F)c(Cl)c2)CC1 | 12.04
CC(=O)N1CCN(c2nc(Cl)nc3[nH]cc(-c4cccc(NC(=O)Nc5cc(C(C)(C)C)nn5-c5ccc(C)cc5)c4)c23)CC1 | 11.86
O=C(Nc1cccc(-c2c[nH]c3ncnc(N4CCOCC4)c23)c1)C1(C(=O)Nc2cccc3c2CCC3)CC1 | 6.18

Looking for the measured dTm of O=C(Nc1ccc(Cl)cc1)C1(C(=O)Nc2cccc(-c3c[nH]c4ncnc(N5CCOCC5)c34)c2)CC1 , can you help?
11.74

Name the recorded dTm for O=C(Nc1cccc(-c2c[nH]c3ncnc(N4CCOCC4)c23)c1)c1cccn(-c2ccc(F)cc2)c1=O .
12.71

Report dTm for CC(C)(C)c1cc(NC(=O)Nc2cccc(-c3c[nH]c4ncnc(N5CCOCC5)c34)c2)n(-c2ccc3ncccc3c2)n1 please.
16.99

# lookup: dTm of Cc1ccc(-n2nc(C(C)(C)C)cc2NC(=O)Nc2cccc(-c3c[nH]c4nc(Cl)nc(N5CCOCC5)c34)c2)cc1
9.71

Fill blank: measured dTm of the compound O=C(Nc1ccc(F)cc1)C1(C(=O)Nc2cccc(-c3c[nH]c4ncnc(N5CCOCC5)c34)c2)CC1 is ____.
9.94

Record request: dTm value, item Cn1cc(-c2c[nH]c3ncnc(N4CCOCC4)c23)cc1C#N
0.70

Endpoint output: dTm of CN[C@@H]1C[C@H]2O[C@@](C)([C@@H]1OC)n1c3ccccc3c3c4c(c5c6ccccc6n2c5c31)C(=O)NC4 . Value?
8.03

Name the reported dTm value associated with the compound CNC(=O)c1cc(Oc2ccc(NC(=O)Nc3cc(C(C)(C)C)nn3-c3ccc4ncccc4c3)c(F)c2)ccn1 [Rebastinib, reference compound]
13.29

For COc1cc(NC(=O)C2(C(=O)Nc3cccc(-c4c[nH]c5ncnc(N6CCOCC6)c45)c3)CC2)ccc1F , what is its reported dTm?
11.57

What does the data say about its dTm? Entry: Cc1ccc(NC(=O)C2(C(=O)Nc3cccc(-c4c[nH]c5ncnc(N6CCOCC6)c45)c3)CC2)cc1
9.07

Bench note: what dTm did CCNc1nc(Nc2cc(F)c(C(=O)N3CCOCC3)cc2OC)ncc1C(F)(F)F show?
0.51

I would be grateful if you could share the reported dTm for C[C@@H]1CN(c2cc(-c3n[nH]c4ccc(OC5(C)CC5)cc34)ncn2)C[C@H](C)O1 .
0.32

Tell me the measured dTm of O=C(Nc1cccc(-c2c[nH]c3ncnc(N4CCOCC4)c23)c1)C1(C(=O)Nc2ccc(F)c(Br)c2)CC1 , please.
11.96

Endpoint output: dTm of CCc1ccc(NC(=O)C2(C(=O)Nc3cccc(-c4c[nH]c5ncnc(N6CCOCC6)c45)c3)CC2)cc1 . Value?
8.81

dTm lookup needed for O=C(Nc1ccccc1)C1(C(=O)Nc2cccc(-c3c[nH]c4ncnc(N5CCOCC5)c34)c2)CC1 , thanks.
7.89

Quick check: dTm of O=C(Nc1cccc(-c2c[nH]c3ncnc(N4CCOCC4)c23)c1)C1(C(=O)Nc2ccc(F)c(F)c2)CC1 ?
9.50

Given O=C(Nc1cc(F)cc(Br)c1)C1(C(=O)Nc2cccc(-c3c[nH]c4ncnc(N5CCOCC5)c34)c2)CC1 , state its recorded dTm.
4.18
